- TARGET UNDER TEST: Diaphorase
- ASSAY REMARKS: peptide array, 1 uM labeled diaphorase, with FAD
RECORDED METRIC: fluorescence

Below, each entry is followed by its recorded fluorescence result.
{"BINDER": "LAKQNRVEDGSG", "fluorescence": 1440}
{"BINDER": "RQYQKHSYAKFSGSG", "fluorescence": 2460}
{"BINDER": "VVQALFDGSG", "fluorescence": 2300}
{"BINDER": "PRSFGYNNVGGSG", "fluorescence": 2530}
{"BINDER": "EGYANKLLALFSGSG", "fluorescence": 1730}
{"BINDER": "RWSFPAKGGSG", "fluorescence": 3610}
{"BINDER": "RYPWNKLYKFDGSG", "fluorescence": 3480}
{"BINDER": "VFGVLSQVARDGSG", "fluorescence": 6640}

a = AQVAVDGFYVDGSG
b = LDRLGEYQFSGSG
### Prompt // which entry reports the smaller fluorescence, a or b ? // output: label of the selected item
### Response b
(b: 1160, a: 3090)
